# TESTED_TARGET: T1, ZO-1 PDZ2 domain (residues 184-264) (human, UniProt Q07157 184-264)
# T1 sequence: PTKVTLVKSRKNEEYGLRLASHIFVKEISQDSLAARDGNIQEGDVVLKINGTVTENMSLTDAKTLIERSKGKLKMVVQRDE
# PROTOCOL_TEXT: MST
Where no end group is shown, it is not given here.

{"columns": ["BINDER", "Kd"],
 "data": [
  ["NLNSSRVLDLLV (not fully specified) [C-terminal SARS-CoV-2-E PBM P71L mutant peptide (12-mer, beta variant B.1.351)]", "133 µM"]
]}

Every entry's value here was drawn from paper doi:10.1101/2021.12.04.471219.
